system: h-CA IX (Homo sapiens, UniProt Q16790)
measurement.name: Ki (µM)

// below: answered compounds
The reported h-CA IX (Homo sapiens, UniProt Q16790) Ki of "O=C(NCCc1cccc(Cl)c1)c1cc2ccc(O)cc2oc1=O" is 7.5

The reported h-CA IX (Homo sapiens, UniProt Q16790) Ki of "O=C(c1cc2ccc(O)cc2oc1=O)N1CCN(Cc2ccccc2)CC1" is 84.1

The reported h-CA IX (Homo sapiens, UniProt Q16790) Ki of "Cc1ccc(N2CCN(C(=O)c3cc4ccc(O)cc4oc3=O)CC2)cc1" is 83.2

P: O=C(NCc1ccc(C(F)(F)F)cc1)c1cc2ccc(O)cc2oc1=O
Q: O=C(NCc1ccc(Cl)cc1Cl)c1cc2ccc(O)cc2oc1=O
Lower value of Ki belongs to which: P or Q ? State the label of the item chosen. Q
(Q: 22 µM, P: 83.7 µM)

----------
Test system: normal bronchial epithelial cells (BEAS-2B)
experiment.summary: cell viability (MTT assay), BEAS-2B
Assay type: cell-based, human
condition.description: Homo sapiens, BEAS-2B, 48 h exposure, nonlinear regression, predictive estimates
Catalogue of compounds with associated pIC50
Reminder that pIC50 is minus the log10 of a molar concentration.

# compound "O=C(NCCc1ccccc1Cl)c1cc2ccc(O)cc2oc1=O" ; its pIC50 = 4.11

# compound "Cc1cccc(CNC(=O)c2cc3ccc(O)cc3oc2=O)c1" ; its pIC50 = 3.93

# compound "O=C(NCc1ccc(Cl)cc1Cl)c1cc2ccc(O)cc2oc1=O" ; its pIC50 = 4.02

# compound "O=C(c1cc2ccc(O)cc2oc1=O)N1CCN(c2ccccc2)CC1" ; its pIC50 = 3.40

# compound "COc1ccc(N2CCN(C(=O)c3cc4ccc(O)cc4oc3=O)CC2)cc1" ; its pIC50 = 3.69

# compound "O=C(c1cc2ccc(O)cc2oc1=O)N1CCN(c2ccc(C(F)(F)F)cc2)CC1" ; its pIC50 = 4.27

# compound "COc1ccc(CNC(=O)c2cc3ccc(O)cc3oc2=O)cc1" ; its pIC50 = 3.94

# compound "Cc1ccc(N2CCN(C(=O)c3cc4ccc(O)cc4oc3=O)CC2)cc1C" ; its pIC50 = 3.73

# compound "Cc1ccc(CNC(=O)c2cc3ccc(O)cc3oc2=O)cc1" ; its pIC50 = 3.80

# compound "Cc1ccccc1CNC(=O)c1cc2ccc(O)cc2oc1=O" ; its pIC50 = 3.74

Further cases:
# compound "O=C(NCCc1cccc(Cl)c1)c1cc2ccc(O)cc2oc1=O" ; its pIC50 = 4.06

# compound "O=C(NCc1ccccc1Cl)c1cc2ccc(O)cc2oc1=O" ; its pIC50 = 4.39

# compound "O=C(NCc1ccccc1)c1cc2ccc(O)cc2oc1=O" ; its pIC50 = 3.46

# compound "O=C(NCc1ccc(Cl)c(Cl)c1)c1cc2ccc(O)cc2oc1=O" ; its pIC50 = 4.13

----------
Data export: pKi values recorded with h-CA XII (Homo sapiens).
Sequence (O43570 25-354): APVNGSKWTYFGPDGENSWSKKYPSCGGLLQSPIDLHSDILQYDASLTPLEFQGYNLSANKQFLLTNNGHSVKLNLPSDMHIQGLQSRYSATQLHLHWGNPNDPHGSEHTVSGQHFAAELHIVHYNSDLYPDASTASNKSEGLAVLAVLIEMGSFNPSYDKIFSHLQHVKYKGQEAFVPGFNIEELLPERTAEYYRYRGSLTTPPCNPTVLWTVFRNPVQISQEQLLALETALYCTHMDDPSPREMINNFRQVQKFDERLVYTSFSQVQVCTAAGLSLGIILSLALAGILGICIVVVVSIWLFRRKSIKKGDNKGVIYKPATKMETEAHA
pKi: −log10 of the molar value.
measurement.name: pKi

// below: answered compounds
# compound "O=C(NCc1ccc(Cl)cc1Cl)c1cc2ccc(O)cc2oc1=O" ; its pKi = 4.08

# compound "O=C(c1cc2ccc(O)cc2oc1=O)N1CCN(c2ccc(C(F)(F)F)cc2)CC1" ; its pKi = 5.08

# compound "O=C(c1cc2ccc(O)cc2oc1=O)N1CCN(c2cccc([N+](=O)[O-])c2)CC1" ; its pKi = 4.32

# compound "Cc1ccc(N2CCN(C(=O)c3cc4ccc(O)cc4oc3=O)CC2)cc1C" ; its pKi = 5.04

# compound "O=C(NCc1ccc([N+](=O)[O-])cc1)c1cc2ccc(O)cc2oc1=O" ; its pKi = 4.30

# compound "O=C(NCc1ccc(C(F)(F)F)cc1)c1cc2ccc(O)cc2oc1=O" ; its pKi = 4.27

# compound "Cc1cc(C)cc(N2CCN(C(=O)c3cc4ccc(O)cc4oc3=O)CC2)c1" ; its pKi = 4.33

# compound "Cc1cccc(N2CCN(C(=O)c3cc4ccc(O)cc4oc3=O)CC2)c1C" ; its pKi = 4.38

# compound "Cc1ccc(CNC(=O)c2cc3ccc(O)cc3oc2=O)cc1" ; its pKi = 5.06

# compound "O=C(c1cc2ccc(O)cc2oc1=O)N1CCN(c2ccccc2[N+](=O)[O-])CC1" ; its pKi = 4.20

a: Cc1ccc(N2CCN(C(=O)c3cc4ccc(O)cc4oc3=O)CC2)c(C)c1
b: O=C(NCCc1ccccc1Cl)c1cc2ccc(O)cc2oc1=O
c: COc1ccc(CNC(=O)c2cc3ccc(O)cc3oc2=O)cc1
Order the 3 compounds from highest to lowest pKi. Would you mind listing the labels in the order requested? c, b, a
(c: 5.04, b: 4.37, a: 4.16)

A: Cc1ccccc1CNC(=O)c1cc2ccc(O)cc2oc1=O
B: Cc1ccc(N2CCN(C(=O)c3cc4ccc(O)cc4oc3=O)CC2)cc1
So which one has the bigger pKi here, A or B ? State the label of the item chosen. A
(A: 4.45, B: 4.25)

----------
Data export: pKi values recorded with UniProtKB Q16790.
pKi: −log10 of the molar value.
measurement.name: pKi

// below: answered molecules
The reported UniProtKB Q16790 pKi of O=C(NCc1ccc(Cl)c(Cl)c1)c1cc2ccc(O)cc2oc1=O [Compound 23] is 4.34

The reported UniProtKB Q16790 pKi of O=C(c1cc2ccc(O)cc2oc1=O)N1CCN(c2ccc(C(F)(F)F)cc2)CC1 [Compound 45] is 4.65

The reported UniProtKB Q16790 pKi of Cc1cc(C)cc(N2CCN(C(=O)c3cc4ccc(O)cc4oc3=O)CC2)c1 [Compound 39] is 4.17

a: O=C(c1cc2ccc(O)cc2oc1=O)N1CCN(c2ccc([N+](=O)[O-])cc2)CC1 [Compound 42]
b: O=C(NCc1cccc(F)c1)c1cc2ccc(O)cc2oc1=O [Compound 14]
Lower value of pKi belongs to which: a or b ? State the label of the item chosen. b

----------
system: h-CA IX (Homo sapiens)
pKi: −log10 of the molar value.
measurement.name: pKi

# molecule O=C(c1cc2ccc(O)cc2oc1=O)N1CCN(c2cccc([N+](=O)[O-])c2)CC1 [Compound 41] ; its pKi = 4.60

# molecule O=C(NCc1ccc(Cl)cc1)c1cc2ccc(O)cc2oc1=O [Compound 21] ; its pKi = 4.09

a: O=C(NCc1ccc(F)cc1)c1cc2ccc(O)cc2oc1=O [Compound 13]
b: Cc1ccccc1CNC(=O)c1cc2ccc(O)cc2oc1=O [Compound 5]
Lower value of pKi belongs to which: a or b ? State the label of the item chosen. a
(a: 4.06, b: 4.60)

----------
Data export: pKi values recorded with h-CA IX (Homo sapiens, UniProt Q16790).
pKi: −log10 of the molar value.
measurement.name: pKi

# compound O=C(NCc1ccc(Br)cc1)c1cc2ccc(O)cc2oc1=O [Compound 18] ; its pKi = 4.22

# compound Cc1cccc(N2CCN(C(=O)c3cc4ccc(O)cc4oc3=O)CC2)c1C [Compound 35] ; its pKi = 4.09

I: COc1ccc(CNC(=O)c2cc3ccc(O)cc3oc2=O)cc1 [Compound 9]
II: O=C(NCc1cccc(Cl)c1)c1cc2ccc(O)cc2oc1=O [Compound 20]
Lower value of pKi belongs to which: I or II ? State the label of the item chosen. I
(I: 4.27, II: 4.47)
